# Tested on: Mycobacterium tuberculosis H37Rv
# Test Method Notes: Primary screen (Cycle 1): MIC, IC50, IC90 under aerobic conditions
# Assay type: cell-based
# Measurement Context: Mycobacterium tuberculosis; M. tuberculosis H37Rv, aerobic conditions, primary screen
As shown below, each of these compounds has a reported IC90 value.

Compound | Observed Measurement
CCOC(=O)c1cc(C(=O)c2ccc(Cl)cc2)n2ccc(-c3cc[n+](CC(=O)c4cccc(OC)c4)cc3)cc12 | 16 µM

Input: Please give measured IC90 of the following entry: CCOC(=O)c1cc(C(=O)c2ccc(Cl)cc2)n2ccc(-c3cc[n+](CC(=O)c4ccc(C)cc4)cc3)cc12
Output: 8.2 µM

Input: Please give measured IC90 of the following entry: CCOC(=O)c1cc(C(=O)c2ccccc2)n2ccc(-c3cc[n+](CC(=O)c4cccc(OC)c4)cc3)cc12
Output: > 50 µM

Input: Please give measured IC90 of the following entry: CO[C@H]1/C=C/O[C@@]2(C)Oc3c(C)c(O)c4c(O)c(c(/C=N/N5CCN(C)CC5)c(O)c4c3C2=O)NC(=O)/C(C)=C\C=C\[C@H](C)[C@H](O)[C@@H](C)[C@@H](O)[C@@H](C)[C@H](OC(C)=O)[C@@H]1C [Rifampicin, reference compound]
Output: 0.0071 µM

Input: Please give measured IC90 of the following entry: CCOC(=O)c1cc(C(=O)c2ccc(Cl)cc2)n2ccc(-c3cc[n+](CC(=O)c4ccc(F)cc4)cc3)cc12
Output: > 100 µM

Input: Please give measured IC90 of the following entry: CCOC(=O)c1cc(C(=O)c2ccc(Br)cc2)n2ccc(-c3cc[n+](CC(=O)c4ccc(Cl)cc4)cc3)cc12
Output: > 200 µM

---

# Study Target: CYP2C9 (Homo sapiens, UniProt P11712)
# Sequence (P11712 whole entry): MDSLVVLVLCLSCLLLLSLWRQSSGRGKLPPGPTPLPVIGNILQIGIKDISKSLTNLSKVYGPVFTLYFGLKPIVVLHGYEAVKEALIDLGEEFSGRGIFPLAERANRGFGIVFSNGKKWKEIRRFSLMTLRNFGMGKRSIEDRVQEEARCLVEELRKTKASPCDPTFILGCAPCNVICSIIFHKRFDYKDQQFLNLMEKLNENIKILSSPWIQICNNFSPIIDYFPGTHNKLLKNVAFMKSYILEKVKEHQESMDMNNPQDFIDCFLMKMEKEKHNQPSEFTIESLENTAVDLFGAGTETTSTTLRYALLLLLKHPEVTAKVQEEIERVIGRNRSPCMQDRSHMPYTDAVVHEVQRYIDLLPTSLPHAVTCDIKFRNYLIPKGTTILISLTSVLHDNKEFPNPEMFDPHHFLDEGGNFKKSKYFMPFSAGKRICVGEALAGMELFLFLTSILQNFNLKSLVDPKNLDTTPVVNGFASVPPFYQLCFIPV
Reported Endpoint: IC50

Input: Please give measured IC50 of the following entry: CCOC(=O)c1cc(C(=O)c2ccc(Cl)cc2)n2ccc(-c3cc[n+](CC(=O)c4ccc(C)cc4)cc3)cc12
Output: > 5 µM

---

# Test Method Notes: in vitro
# Measurement Context: human
Reported Endpoint: recovery at 4 h, 5 µM (%)
API: value field is a number in %; no unit string.

Input: Please give measured recovery at 4 h, 5 µM of the following entry: CC(=O)CC(c1ccccc1)c1c(O)c2ccccc2oc1=O (stereo not shown) [Warfarin]
Output: 96.7

---

# System: THP-1 cell line infected with Mtb
# Test Method Notes: Intracellular activity assay, luminescence
# Format: cell-based, Mycobacterium tuberculosis
# Measurement Context: Mycobacterium tuberculosis; Mtb-infected THP-1 cells, 72 h; read-out: IC90 intracell
Reported Endpoint: IC90 (µM)
API: value field is a number in µM; no unit string.

Molecule | Reported Endpoint | Observed Measurement
CCOC(=O)c1cc(C(=O)c2ccccc2)n2ccc(-c3cc[n+](CC(=O)c4ccc(C)cc4)cc3)cc12.[Br-] | IC90 | 15
CCOC(=O)c1cc(C(=O)c2ccc(Cl)cc2)n2ccc(-c3cc[n+](CC(=O)c4ccc(C)cc4)cc3)cc12 | IC90 | 48
CCOC(=O)c1cc(C(=O)c2ccc(Br)cc2)n2ccc(-c3cc[n+](CC(=O)c4cccc(OC)c4)cc3)cc12 | IC90 | 43

Field: next molecule
Input: Please give measured IC90 of the following entry: NNC(=O)c1ccncc1 [Isoniazid, reference compound]
Output: 0.27
